Sourced from patent US20250340623A1

Parameter Kd: see the listing below.
target: monomeric alpha-synuclein, P37840; test: SPR, captured mAb; conditions: remark: other sources report otherwise
Number only, in nM; omit the unit.

Worked cases, answers included:
INSERT INTO results (binder, experimental_endpoint, test_result) VALUES
  ('ACI-7067-1102G3-Ab1 (antibody, V domains shown) VH: EVKLEESGGGLVQPGGSMKLSCAASGFTFSDAWMNWVRQSPEKGLEWVAEIRNKAHNHATYYAESVKGRFTISGDDSKSSVYLQMNNLRAEDTGIYYCTIYSYWGQGTLVTVSA VL: SIVMTQTPKFLLVSAGDRVTITCKASQSVTKDVAWYQQKPGQSPKLLIYSTSNRYSGVPDRFTGSGYGTDFTFTINTVQTEDLAVYFCQQDYRIPYTFGGGTKLEIK', 'Kd', 8),
  ('ACI-7079-2602G4-Ab4 (antibody, V domains shown) VH: EVQLVESGGGLVQPKGSLKLSCAASGFTFKTYAMHWVRQAPGKGLEWVARIRSKGSDYATYYADSVKDRFTISRDDSQSMLYLQMNNLKTEDTAMYFCVRGGADSWFAYWGQGTLVTVST VL: QIVLTQSPAIMSASPGERITMTCTASSSVSYMHWYQQKSGTSPKRWIYDTSKLASGVPARFSGSGSGASYTLTISSMEAEDAATYYCQQWNRNPPTFGGGTQLAIK', 'Kd', 3.9),
  ('ACI-7088-4301H3-Ab2 (antibody, V domains shown) VH: EVQLQQSGPELVKPGASVKISCKASGYTFADYFMNWVKQSHGKSLEWIGDINPNNGGTTYNQKFKGKATLTVDKSSNTAYMELRSLTSEDSAVYYCARGRNYAMDYWGQGTSVTVSS VL: DIVMSQSPSSLAVSAGEKVTMSCKSSQSLLNSRTRKNYLAWYQQKPGQSPKLLIYSASTRESGVPDRFTGSGFGTDFTLTISSVQAEDLAVYYCKQSYDLWTFGGGTKLEIK', 'Kd', 119),
  ('ACI-8033-17F5-Ab1 (antibody, V domains shown) VH: EVQLQQSGPELVKPGASVKISCKASGYTFTDYFMNWVKQSHGKSLEWIGDINPNIDVTNYNQKFKGKATLTVDKSSSTAYMELRSLTSEDSAVYYCARGRDYAMDFWGQGTSVTVSS VL: DIVMSQSPSSLAVSAGEKVTMSCKSSQSLLNSRTRKNYLAWYQQKPGQSPKLLIYWASTRESGVPDRFTGSGSGTDFTLTISSVQAEDLAVYYCKQSYDLWTFGGGTKLEIK', 'Kd', 2.4),
  ('ACI-7079-2501B11-Ab3 (antibody, V domains shown) VH: QVQLQQSGPELVKPGASVKISCKASGYAFSSFWMNWMKQRPGKGLEWIGRIYPGDGDAHYNGEFKGRATLTADKSSSTAYMQLSSLTSEDSAVYFCARKGDFYGSNYDYWGQGTTLTVSS VL: QAVVTQESALTTSPGETVTLTCRSSTGAVTTSNYANWVQEKPDHLFTGLIGGTNNRAPGVPARFSGSLIGDKAALTITGAQTEDEAIYFCALWYSNHLVFGGGTRLTVL', 'Kd', 2.4),
  ('ACI-7088-4303A3-Ab1 (antibody, V domains shown) VH: QVQLQQSGAELVRPGASVTLSCKASGYTFTDYEMHWVKQTPVHGLEWIGVIDPETGGAVQNQKFKGKAILTADNSSSTAYMDLRSLTSEDSAVYNCAMGAALRLAYWGQGTLVTVSS VL: DVLMTQTPLSLPVSLGDQASISCRSSQSIVHSNGNSYLEWYLQKPGQSPKLLIYKVSNRFSGVPDRFSGSGSGTDFTLKINRVEAEDLGVYYCFQGSHVPFTFGSGTKLEIK', 'Kd', 1),
  ('ACI-7067-1108H1-Ab1 (antibody, V domains shown) VH: EVKLVESGGGLVQPGGSMKLSCTASGFTFSDAWMNWVRQSPEKGLEWVAEIRNKAHNHATNYAESVKGRFTISGDDSKSSVYLQMNNLRAEDTGIYYCTIYSFWGQGTLVTVSA VL: SIVMTQTPKFLLVSAGDRVTITCKASQSVTNYVAWYHQKPGQSPKLLIYSASNRYSGVPDRFTGSGYGTDFTFTINTVQTEDLAVYFCQQDYRIPYTFGGGTKLEIK', 'Kd', 4.4);

# input // lookup Kd for ACI-7079-2603C1-Ab3 (antibody, V domains shown) VH: QVQLQQPGADLVKPGASVKLSCKASGYTFTSYWMQWTKQRPGQGLEWIGEIDPSDSYANYNQKFKGKATLTVDKYSSTAYMQLNSLTSEDSAVYYCALYDGPSYWGQGTLVTVS VL: ENVLTQSPAIMSASPGEKVTMTCSAGSSVSYMHWFQQKSSTSPKLWIYDTSKLPSGVPGRFSGSGSGNSYSLTISSMEAEDVATYYCFQGSGYPYTFGGGTKLEIK
# output 10.9
